Target: ER protein (Homo sapiens)
Test: Western blotting analysis of ER protein degradation in T47D cell line
Type: cell-based
Parameters: western blotting detection of the level of intracellular ER protein; endogenous in cells; host or cells: T47D
Conditions: degradation of ER protein, T47D cells, drug treatment for 16 hours, Western blot gray values vs DMSO control; read-out: DC50 (nM)/T47Dcell line
In this section we review reported DC50 values for a set of compounds.

INSERT INTO measurements (compound, test_value) VALUES
  ('Cc1ncsc1-c1ccc(CNC(=O)[C@@H]2C[C@@H](O)CN2C(=O)[C@@H](NC(=O)COCCOCC(=O)NCCOc2ccc(C(=C(CCCl)c3ccccc3)c3ccc(O)cc3)cc2)C(C)(C)C)cc1 [SIAIS208041]', '< 10 nM');

Attention now shifts to the item below.
Provide DC50, system ER protein (Homo sapiens), entry CCC(=C(c1ccc(O)cc1)c1ccc(OCCNC(=O)CCOCCOCCC(=O)N[C@H](C(=O)N2C[C@H](O)C[C@H]2C(=O)NCc2ccc(-c3scnc3C)cc2)C(C)(C)C)cc1)c1ccc(O)cc1 [SIAIS208173] < 10 nM

* * *

Tested on: MCF-7 cell line
Assay: Assay for determination of inhibition of MCF-7 cell proliferation (CCK-8)
Type: cell-based
Details: Homo sapiens, MCF7, 96 h; MCF-7 cells, 4 days, CCK-8, FIG. 3
ASSAY_METRIC: pIC50
Expect pIC50 as a plain number equal to -log10 of the molar concentration.

Solved entries:
INSERT INTO assay_data (compound, test_value) VALUES
  ('Cc1ncsc1-c1ccc(CNC(=O)[C@@H]2C[C@@H](O)CN2C(=O)[C@@H](NC(=O)CCCCCCCC(=O)NCCOc2ccc(C(=C(CCCl)c3ccccc3)c3ccc(O)cc3)cc2)C(C)(C)C)cc1 [SIAIS208035]', 9.12),
  ('CCC(=C(c1ccc(O)cc1)c1ccc(OCCNC(=O)CCCCCCCCC(=O)N[C@H](C(=O)N2C[C@H](O)C[C@H]2C(=O)NCc2ccc(-c3scnc3C)cc2)C(C)(C)C)cc1)c1ccc(O)cc1 [SIAIS208168]', 9.12),
  ('CCC(=C(c1ccc(O)cc1)c1ccc(OCCNC(=O)CCOCCOCCC(=O)N[C@H](C(=O)N2C[C@H](O)C[C@H]2C(=O)NCc2ccc(-c3scnc3C)cc2)C(C)(C)C)cc1)c1ccc(O)cc1 [SIAIS208173]', 8.44),
  ('CN(C)CCOc1ccc(/C(=C(/CCCl)c2ccccc2)c2ccccc2)cc1 [Toremifene, reference compound]', 6.06);

Attention now shifts to the item below.
Let me know recorded pIC50 for Cc1ncsc1-c1ccc(CNC(=O)[C@@H]2C[C@@H](O)CN2C(=O)[C@@H](NC(=O)CCCCCCC(=O)N2CCN(CCOc3ccc(C(=C(CCCl)c4ccccc4)c4ccc(O)cc4)cc3)CC2)C(C)(C)C)cc1 [SIAIS251045] , thanks. 8.38

* * *

Target: ER protein (Homo sapiens, UniProt P03372)
Sequence (P03372 1-595): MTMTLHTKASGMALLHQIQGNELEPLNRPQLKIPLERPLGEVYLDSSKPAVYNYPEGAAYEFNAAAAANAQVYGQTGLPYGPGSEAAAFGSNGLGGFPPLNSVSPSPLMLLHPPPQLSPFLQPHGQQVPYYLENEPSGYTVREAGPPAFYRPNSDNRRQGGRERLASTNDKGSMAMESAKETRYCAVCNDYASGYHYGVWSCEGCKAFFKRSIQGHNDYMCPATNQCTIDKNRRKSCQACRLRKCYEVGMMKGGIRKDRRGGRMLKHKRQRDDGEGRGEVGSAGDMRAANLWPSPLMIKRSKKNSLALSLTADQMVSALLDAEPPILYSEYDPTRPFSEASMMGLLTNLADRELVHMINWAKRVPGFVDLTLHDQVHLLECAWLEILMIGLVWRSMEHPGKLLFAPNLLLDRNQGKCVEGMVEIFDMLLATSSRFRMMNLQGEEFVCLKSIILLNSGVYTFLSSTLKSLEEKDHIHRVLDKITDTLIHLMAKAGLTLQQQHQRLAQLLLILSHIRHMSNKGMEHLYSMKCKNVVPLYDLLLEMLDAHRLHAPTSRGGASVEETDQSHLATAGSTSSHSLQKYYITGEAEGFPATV
Experiment: Western blotting analysis of ER protein degradation in MCF-7 cell line
Format: cell-based
Design: western blotting detection of the level of intracellular ER protein; endogenous in cells
Settings: MCF-7 cells, Western blot gray values vs DMSO control
In this section we review reported DC50 values for a set of compounds.

Let me know recorded DC50 for Cc1ncsc1-c1ccc(CNC(=O)[C@@H]2C[C@@H](O)CN2C(=O)[C@@H](NC(=O)CCOCCOCCOCCOCCC(=O)NCCOc2ccc(C(=C(CCCl)c3ccccc3)c3ccc(O)cc3)cc2)C(C)(C)C)cc1 [SIAIS208019] , thanks. < 50 nM

Let me know recorded DC50 for Cc1ncsc1-c1ccc(CNC(=O)[C@@H]2C[C@@H](O)CN2C(=O)[C@@H](NC(=O)CCC(=O)NCCOc2ccc(C(=C(CCCl)c3ccccc3)c3ccc(O)cc3)cc2)C(C)(C)C)cc1 [SIAIS208020] , thanks. < 50 nM

Let me know recorded DC50 for Cc1ncsc1-c1ccc(CNC(=O)[C@@H]2C[C@@H](O)CN2C(=O)[C@@H](NC(=O)CCCCCCCCCCCCCCC(=O)NCCOc2ccc(C(=C(CCCl)c3ccccc3)c3ccc(O)cc3)cc2)C(C)(C)C)cc1 [SIAIS208039] , thanks. < 100 nM

Let me know recorded DC50 for Cc1ncsc1-c1ccc(CNC(=O)[C@@H]2C[C@@H](O)CN2C(=O)[C@@H](NC(=O)CCCCCCCCCC(=O)NCCOc2ccc(C(=C(CCCl)c3ccccc3)c3ccc(O)cc3)cc2)C(C)(C)C)cc1 [SIAIS208037] , thanks. < 10 nM

* * *

Molecular target: ER protein (Homo sapiens, UniProt P03372)
Assay: Western blotting analysis of ER protein degradation in T47D cell line
Format: cell-based
Set-up: western blotting detection of the level of intracellular ER protein; endogenous in cells; host or cells: T47D
Settings: degradation of ER protein, T47D cells, drug treatment for 16 hours, Western blot gray values vs DMSO control; read-out: DC50 (nM)/T47Dcell line
ASSAY_METRIC: DC50

Solved entries:
INSERT INTO results (molecule, system_under_test, test_value) VALUES
  ('CCC(=C(c1ccc(O)cc1)c1ccc(OCCNC(=O)CCCCCCCC(=O)N[C@H](C(=O)N2C[C@H](O)C[C@H]2C(=O)NCc2ccc(-c3scnc3C)cc2)C(C)(C)C)cc1)c1ccc(O)cc1 [SIAIS208167]', 'ER protein (Homo sapiens, UniProt P03372)', '< 50 nM'),
  ('Cc1ncsc1-c1ccc(CNC(=O)[C@@H]2C[C@@H](O)CN2C(=O)[C@@H](NC(=O)CCCCCCCC(=O)N2CCN(CCOc3ccc(C(=C(CCCl)c4ccccc4)c4ccc(O)cc4)cc3)CC2)C(C)(C)C)cc1 [SIAIS251046]', 'ER protein (Homo sapiens, UniProt P03372)', '< 50 nM'),
  ('O=C(CCCCCCNc1cccc2c1CN(C1CCC(=O)NC1=O)C2=O)NCCOc1ccc(C(=C(CCCl)c2ccccc2)c2ccc(O)cc2)cc1 (centres unmarked) [SIAIS251033]', 'ER protein (Homo sapiens, UniProt P03372)', '50 nM'),
  ('Cc1ncsc1-c1ccc(CNC(=O)[C@@H]2C[C@@H](O)CN2C(=O)[C@@H](NC(=O)CCOCCOCCOCCC(=O)N(C)CCOc2ccc(/C(=C(/CCCl)c3ccccc3)c3ccccc3)cc2)C(C)(C)C)cc1 [SIAIS180024]', 'ER protein (Homo sapiens, UniProt P03372)', '< 50 nM');

Let me know recorded DC50 for Cc1ncsc1-c1ccc(CNC(=O)[C@@H]2C[C@@H](O)CN2C(=O)[C@@H](NC(=O)CCCCCCCCC(=O)N(C)CCOc2ccc(/C(=C(/CCCl)c3ccccc3)c3ccccc3)cc2)C(C)(C)C)cc1 [SIAIS180036] , thanks. < 200 nM

* * *

Molecular target: ER protein (Homo sapiens, UniProt P03372)
Assay: Western blotting analysis of ER protein degradation in MCF-7 cell line
Assay type: cell-based
Parameters: western blotting detection of the level of intracellular ER protein; endogenous in cells
Settings: MCF-7 cells, Western blot gray values vs DMSO control
Procedure: MCF-7 were cultured in ncubator with 5% CO2 at 37° C. Complete medium was EMEM supplemented with 10% FBS, 100 U/mL Penicillin and Streptomycin, and 0.77 μg/mL recombinant human insulin. […]
In this section we review reported DC50 values for a set of compounds.

INSERT INTO results (compound, test_value) VALUES
  ('Cc1ncsc1-c1ccc(CNC(=O)[C@@H]2C[C@@H](O)CN2C(=O)[C@@H](NC(=O)CCCCC(=O)NCCOc2ccc(C(=C(CCCl)c3ccccc3)c3ccc(O)cc3)cc2)C(C)(C)C)cc1 [SIAIS208032]', '< 100 nM'),
  ('Cc1ncsc1-c1ccc(CNC(=O)[C@@H]2C[C@@H](O)CN2C(=O)[C@@H](NC(=O)CCCCCC(=O)NCCOc2ccc(C(=C(CCCl)c3ccccc3)c3ccc(O)cc3)cc2)C(C)(C)C)cc1 [SIAIS208033]', '< 10 nM'),
  ('Cc1ncsc1-c1ccc(CNC(=O)[C@@H]2C[C@@H](O)CN2C(=O)[C@@H](NC(=O)CCCCCCCCCCCCC(=O)NCCOc2ccc(C(=C(CCCl)c3ccccc3)c3ccc(O)cc3)cc2)C(C)(C)C)cc1 [SIAIS208038]', '< 10 nM');

Let me know recorded DC50 for Cc1ncsc1-c1ccc(CNC(=O)[C@@H]2C[C@@H](O)CN2C(=O)[C@@H](NC(=O)CCCCCCC(=O)NCCOc2ccc(C(=C(CCCl)c3ccccc3)c3ccc(O)cc3)cc2)C(C)(C)C)cc1 [SIAIS208034] , thanks. < 10 nM

Let me know recorded DC50 for Cc1ncsc1-c1ccc(CNC(=O)[C@@H]2C[C@@H](O)CN2C(=O)[C@@H](NC(=O)CCCCCCCCC(=O)NCCOc2ccc(/C(=C(/CCCl)c3ccccc3)c3ccc(O)cc3)cc2)C(C)(C)C)cc1 [SIAIS208036] , thanks. < 10 nM
